The values you see were collected from PubChem BioAssay.

# ASSAY_PROCEDURE: antimalarial activity against Dd2 strain (AID 2302);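 further: 0% = DMSO untreated growth and 100% = chloroquine plus artemisinin killed control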
# EXPERIMENTAL_PARAMETERS: P. falciparum Dd2 in RBCs, LDH growth readout, 72 h; at 2 µM; stronger effect = higher value
Calls of active or inactive are those of the source.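 How the source made its calls: active means growth inhibition above 50% at the single 2 µM test dose, taken to imply half-maximal potency below 2 µM; inactive means the rest.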
RESULT_TYPE: growth inhibition

MOLECULE	READOUT_VALUE
Cn1cncc1C(=O)Nc1cccc(-c2ccc(-c3nc4ccccc4[nH]3)s2)c1	25% (inactive)
COc1cccc(-c2ccc(C(=O)NC3CCN(Cc4ccc(N(C)C)cc4)CC3)s2)c1	20% (inactive)
COc1ccc(-c2ccc(CNC(=O)c3cccc(C#N)c3)c(F)c2)cc1CN1CCCN(C)CC1	30% (inactive)

Determine its reported growth inhibition: C[C@@H]([C@@H](CCCCc1ccccc1)C(=O)N[C@H](C(=O)Nc1cccnc1)C(C)(C)C)N(O)C=O 98% (active)

====

# SYSTEM: L-lactate dehydrogenase (Plasmodium falciparum (isolate CDC / Honduras))
# ASSAY_PROCEDURE: PfLDH activity inhibition – cell lysate, 3D7 strain, counter-screen for P. falciparum growth inhibition project (AID 2304);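 further: 0% = vehicle and 100% = reference inhibitor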
# EXPERIMENTAL_PARAMETERS: P. falciparum 3D7 crude extract, LDH APAD/NBT absorbance; at 2 µM; stronger effect = higher value
# reported inhibition; entries follow
Please respond with the number in % and leave the unit unwritten.

See these solved cases before continuing.
COMPOUND	inhibition, %
O=C1CCCN1CCCNCc1ccc(-c2cccc(-c3nc4ccc(F)cc4[nH]3)c2)cc1	-1
COc1ccc2nccc(N3CCC(NCCNCc4ccc5c(n4)NC(=O)CO5)C3)c2n1 (centres undefined)	3
O=C(C1CCCC1)N1CCOC(CCN2CCC(c3ccccc3)CC2)(c2ccc(Cl)c(Cl)c2)C1 (centres undefined)	0

Shift focus to the following entry.
Look up and report measured inhibition (L-lactate dehydrogenase (Plasmodium falciparum (isolate CDC / Honduras))) for the following compound: COc1cc(NCC(O)CNc2cc(Cl)nc3ccccc23)nc2ccccc12 (centres undefined) -2

====

# ASSAY_PROCEDURE: human hepatoma cell viability loss – ATP luminescence, cytotoxicity control for P. falciparum antimalarial project, primary screen (AID 2303);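 further: 0% = DMSO wells and 100% = digitonin-killed cells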
# EXPERIMENTAL_PARAMETERS: HepG2 viability, 24-48 h, at 10 µM, stronger effect = higher value
# reported inhibition; entries follow
Please respond with the number in % and leave the unit unwritten.

Determine its reported inhibition: Cc1cc(NC(=O)Nc2ccc(I)c(OCCN(C)C)c2)ccc1Br 18

Determine its reported inhibition: O=C1CC(C(=O)Nc2cccc(-c3cccc(-c4nc5ccccc5[nH]4)c3)c2)c2ccccc2N1 (stereo not given) 0

Determine its reported inhibition: CC(C)COc1ccc(Cl)cc1Cc1nc(-c2nc3nc(N4CCN(C)CC4)ccc3[nH]2)cs1 29

Determine its reported inhibition: c1ccc(CSC2=NNC(c3ccccn3)S2)cc1 (stereo not given) 6

Determine its reported inhibition: Oc1ccc(Nc2nc(NCc3ccccc3)c3ccccc3n2)cc1 33

====

# reported growth inhibition; entries follow
# ASSAY_PROCEDURE: antimalarial activity against Dd2 strain (AID 2302);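 further: 0% = DMSO untreated growth and 100% = chloroquine plus artemisinin killed control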
# EXPERIMENTAL_PARAMETERS: P. falciparum Dd2 in RBCs, LDH growth readout, 72 h; at 2 µM; stronger effect = higher value
Active and inactive are the calls of the source.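 The calls were made as follows: active = growth inhibition above 50% at the single 2 µM test dose, taken to imply half-maximal potency below 2 µM; inactive = the rest.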

See these solved cases before continuing.
COMPOUND	RESULT_TYPE	READOUT_VALUE
CN1CCc2ccc(NC(=O)Nc3cccc([N+](=O)[O-])c3)cc2C1	growth inhibition	3% (inactive)
O=S(=O)(ON=C1CCc2ccccc21)c1ccc(Cl)cc1	growth inhibition	79% (active)

Determine its reported growth inhibition: Fc1ccc(CNc2ncc(-c3ccsc3)c(-c3nccs3)n2)cc1 77% (active)

Determine its reported growth inhibition: COc1cc(-c2nnc(SCC(=O)Nc3cc(C)on3)n2C)cc(OC)c1O 2% (inactive)

Determine its reported growth inhibition: COc1ccc(F)cc1-c1ccc(C(=O)N2CCCN(c3ccc(C#N)cn3)CC2)cc1 100% (active)

====

# SYSTEM: L-lactate dehydrogenase (Plasmodium falciparum (isolate CDC / Honduras))
# ASSAY_PROCEDURE: PfLDH activity inhibition – cell lysate, 3D7 strain, counter-screen for P. falciparum growth inhibition project (AID 2304);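 further: 0% = vehicle and 100% = reference inhibitor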
# EXPERIMENTAL_PARAMETERS: P. falciparum 3D7 crude extract, LDH APAD/NBT absorbance; at 2 µM; stronger effect = higher value
RESULT_TYPE: inhibition (%)
Please respond with the number in % and leave the unit unwritten.

COMPOUND	inhibition [%]
CC(C)NCc1ccc(-c2ccc(-c3nc4ccc(C(F)(F)F)cc4[nH]3)cc2)cc1	0
NC(N)=NCC=C(c1ccccc1)c1ccccc1	1
O=C(NCCN1CCCCC1)N1CCCN(c2ncnc3cc(-c4ccccc4)sc23)CC1	-1
CNC(=O)COc1cc(C)c(C2CCN(CCCCNC(=O)c3ccc(-c4ccc(C(F)(F)F)cc4)cc3)CC2)cc1C	4
CCC(C(=O)Nc1ccccc1)n1nc(-c2ccc(C)c(S(=O)(=O)N3CCCCC3)c2)ccc1=O (centres undefined)	4

Determine its reported inhibition: COc1ccc(NC(=O)[C@H](Cc2ccccc2)Nc2cc(C)nc(NCCOc3ccccc3)n2)cc1 3

Determine its reported inhibition: CC(Oc1ccc(Cl)cc1Cl)c1nc(-c2ccc(NC(=O)c3ccco3)cc2)no1 (centres undefined) 0

Determine its reported inhibition: CCCCCCNC(=O)C1Cc2c([nH]c3ccc(C)cc23)C2(CCN(CCc3ccccc3)CC2)N1 (centres undefined) 4

Determine its reported inhibition: CC(C)(CC1CCCCC1)NC(=O)[C@H](CC1CCCCC1)Nc1ccc(C#N)c2ccccc12 -2

====

# reported inhibition; entries follow
# ASSAY_PROCEDURE: human hepatoma cell viability loss – ATP luminescence, cytotoxicity control for P. falciparum antimalarial project, primary screen (AID 2303);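 further: 0% = DMSO wells and 100% = digitonin-killed cells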
# EXPERIMENTAL_PARAMETERS: HepG2 viability, 24-48 h, at 10 µM, stronger effect = higher value
Please respond with the number in % and leave the unit unwritten.

COMPOUND	READING_UNIT	READOUT_VALUE
CCCOc1ccc(-c2nonc2NC(=O)c2cccc(OC)c2)cc1OCCC	%	18
c1ccc(OCCOc2ccc(Nc3ccnc4cc5ccccc5cc34)cc2)cc1	%	44
Cc1nc(-c2cccc(C(=O)N(Cc3cncn3Cc3cccc(C(F)(F)F)c3)CC3CC3)c2)cs1	%	7
O[C@@H](c1cccc(OCc2ccccc2)c1)[C@@H]1CN(CCc2ccccc2)CC[C@@]1(O)c1ccccc1	%	7
CCCCCCOc1ccc(C(N)=NCc2ccccc2)c2c1CCCC2	%	62

Determine its reported inhibition: CCC[C@@H]([C@@H](CC(C)C)C(=O)N[C@@H](CCCCNC(=O)c1ccccn1)C(=O)Nc1nccs1)N(O)C=O -23

Determine its reported inhibition: Cn1nc(-c2cccc(CNCc3ccccc3)c2)c2cnc(NC3CCCC3)nc21 5

Determine its reported inhibition: Cc1cccc2[nH]c(-c3ccc(-c4cccc(CNCCc5ccncc5)c4)s3)nc12 11

Determine its reported inhibition: O=C1SC(=Cc2ccc(O)c(O)c2)C(=O)N1c1ccccc1 12

Determine its reported inhibition: COc1cc2nc(NCCc3ccccc3)nc(NC(C)c3ccccc3)c2cc1OC (stereo not given) 9

====

# SYSTEM: L-lactate dehydrogenase (Plasmodium falciparum (isolate CDC / Honduras)) (UniProt Q27743)
# Sequence (Q27743 whole entry, looked up): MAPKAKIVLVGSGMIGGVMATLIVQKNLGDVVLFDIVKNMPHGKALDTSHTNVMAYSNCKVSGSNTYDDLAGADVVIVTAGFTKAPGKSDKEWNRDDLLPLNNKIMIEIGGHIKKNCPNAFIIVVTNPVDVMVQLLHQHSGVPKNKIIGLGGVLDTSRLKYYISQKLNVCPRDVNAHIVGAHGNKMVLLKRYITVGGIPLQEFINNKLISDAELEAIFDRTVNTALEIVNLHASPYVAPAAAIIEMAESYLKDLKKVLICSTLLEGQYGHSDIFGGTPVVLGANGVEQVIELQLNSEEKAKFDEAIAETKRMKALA
# ASSAY_PROCEDURE: PfLDH activity inhibition – cell lysate, 3D7 strain, counter-screen for P. falciparum growth inhibition project (AID 2304);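 further: 0% = vehicle and 100% = reference inhibitor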
# EXPERIMENTAL_PARAMETERS: P. falciparum 3D7 crude extract, LDH APAD/NBT absorbance; at 2 µM; stronger effect = higher value
RESULT_TYPE: inhibition (%)
Please respond with the number in % and leave the unit unwritten.

See these solved cases before continuing.
MOLECULE	inhibition (%)
CC(=O)Nc1ccc(C(=O)Nc2cccc(-c3ccc(-c4nc5ccc(C(F)(F)F)cc5[nH]4)s3)c2)cn1	3
COc1ccc2ncc(F)c(CCN3CCC(NCc4cc(Br)c5c(c4)OCCO5)CC3)c2n1	-2
O=C(NCc1cccc(C(F)(F)F)c1)c1ccc(CNC(=O)c2ccc(O)c(-c3ccc(Cl)c(Cl)c3)c2)cc1	2
O=C(NCCCN1CCCC1=O)c1cnc(N2CCC(Oc3ccccc3)CC2)c(Cl)c1	-2
CCN1C(=O)C(CC(=O)Nc2cccc(Cl)c2)N(Cc2ccc(OC)c(OC)c2)C1=S (centres undefined)	-8

Look up and report measured inhibition (L-lactate dehydrogenase (Plasmodium falciparum (isolate CDC / Honduras)) (UniProt Q27743)) for the following molecule: Cc1ccc2nc(Cl)c3cc(C(=O)NCCCN4CCCC4)sc3c2c1 0

Look up and report measured inhibition (L-lactate dehydrogenase (Plasmodium falciparum (isolate CDC / Honduras)) (UniProt Q27743)) for the following molecule: CCOC(=O)COc1cccc(CNc2ccc3nc(N)nc(N)c3c2)c1 4

Look up and report measured inhibition (L-lactate dehydrogenase (Plasmodium falciparum (isolate CDC / Honduras)) (UniProt Q27743)) for the following molecule: COc1ccc(-c2ccccc2CNc2nc(NCCc3ccc(O)cc3)nc(N3CCNCC3)n2)cc1 -3

Look up and report measured inhibition (L-lactate dehydrogenase (Plasmodium falciparum (isolate CDC / Honduras)) (UniProt Q27743)) for the following molecule: COc1ccc2ccccc2c1CCCCN1CCN(CC(c2ccc(F)cc2)N2CCC2)CC1 (centres undefined) 9

Look up and report measured inhibition (L-lactate dehydrogenase (Plasmodium falciparum (isolate CDC / Honduras)) (UniProt Q27743)) for the following molecule: Nc1cc(-c2ccc(-c3cccs3)s2)nc2ccccc12 5
